In this section we review reported pKd values for a set of binders.
- tested.on: human CLDN6 fused to GFP, expressed on engineered HEK293T cells (human) (UniProt P56747)
- assay.explanation: KinExA 4000, cell-based equilibrium titration; Cell Model HEK293T CLDN6-mGFP A11, Cells Detached by Versene; Equilibrium Curves 500pM, 10nM
pKd: −log10 of the molar value.

binder: AB3-7 conjugated to MC-VC-PAB-MMAE (D4 technology) (antibody, V domains shown, MC-VC-PAB-MMAE conjugated to the antibody, substantially 4 drugs per antibody (D4); sites not stated) VH: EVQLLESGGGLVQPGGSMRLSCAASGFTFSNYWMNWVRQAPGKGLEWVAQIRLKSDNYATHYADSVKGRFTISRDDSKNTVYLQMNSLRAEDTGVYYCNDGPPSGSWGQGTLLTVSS VL: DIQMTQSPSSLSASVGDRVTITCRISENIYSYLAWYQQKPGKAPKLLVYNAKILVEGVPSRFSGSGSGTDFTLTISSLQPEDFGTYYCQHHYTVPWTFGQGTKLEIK
pKd: 8.27

binder: AB3-7 conjugated to MC-VC-PAB-DXD (antibody, V domains shown, MC-VC-PAB-DXD conjugated to the antibody; sites not stated) VH: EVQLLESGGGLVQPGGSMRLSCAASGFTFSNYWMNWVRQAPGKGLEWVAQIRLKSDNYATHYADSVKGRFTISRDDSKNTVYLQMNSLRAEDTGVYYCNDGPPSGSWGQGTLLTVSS VL: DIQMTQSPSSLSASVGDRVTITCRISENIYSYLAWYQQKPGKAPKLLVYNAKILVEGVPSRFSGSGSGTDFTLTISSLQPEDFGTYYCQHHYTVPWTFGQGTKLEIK
pKd: 8.47
